Value source: ChEMBL document CHEMBL4689842

Tested on: U2OS
Experiment: Multiplex assay against U2OS
Type: toxicity, cell-based
Conditions: human, 48 h, 1 µM, compound concentration 1 uM, replicate 1
observed_property: Total Cell Count
Answers are plain numbers.

molecule	Total Cell Count
CC(C)C[C@H](NC(=O)[C@H](Cc1ccccc1)NC(=O)CNC(=O)CNC(=O)[C@@H](N)Cc1ccc(O)cc1)C(=O)O	229
C[C@@H](Oc1cc(-n2cnc3ccc(CN4CCN(C)CC4)cc32)sc1C(N)=O)c1ccccc1C(F)(F)F	246
CCCCCNC(=N)N/N=C/c1c[nH]c2ccc(OC)cc12.O=C(O)/C=C\C(=O)O [TEGASEROD MALEATE]	112
CN(c1cc(C(F)(F)F)nc(OCCC(=O)O)n1)c1cccc2c1CCC2	200
CCCc1cc(C)[nH]c(=O)c1CNC(=O)c1cc(-c2ccc(N3CCN(C(C)C)CC3)nc2)cc2c1cnn2C(C)C	142

Take each entry in turn and give its Total Cell Count.
1. CC(C)c1cc(Nc2nc(N3CCC[C@H](N)C3)ncc2C(N)=O)cc(C(C)C)n1
2. CC(C)[C@H](CO)Nc1nc(Nc2cccc(Cl)c2)c2ncn(C(C)C)c2n1
3. N#Cc1cccc(C(=O)Nc2cc(-c3ccccc3)nn2-c2ccccc2)c1

1: 249; 2: 219; 3: 190

----------
System: Fibroblast
Assay: Multiplex assay against human fibroblast
Assay type: toxicity, cell-based
Conditions: 48 h, 1 µM, compound concentration 1 uM, replicate 1
Could you please report measured Population Hoechst High Intensity Objects (%) for the items listed next?
One number for each entry, in %.

CC(C)[C@H](CO)Nc1nc(Nc2cccc(Cl)c2)c2ncn(C(C)C)c2n1 19
CCCCN(CC)c1nc(C)nc2c1c(C)cn2-c1c(C)cc(C)cc1C.Cl 16

Please examine the following record next.
Give a short answer stating reported Population Hoechst High Intensity Objects (%) for "CN(c1cc(C(F)(F)F)nc(OCCC(=O)O)n1)c1cccc2c1CCC2" . 20

----------
Assignment: determine reported Population Normal (%) for the given molecules.
System: U2OS
Experiment: Multiplex assay against U2OS
Assay type: toxicity, cell-based
Details: human, 48 h, 10 µM, compound concentration 10 uM, replicate 2
Numbers only, in %.

Need Population Normal (%) for each of these molecules.
1. Oc1cccc(-c2nc(N3CCOCC3)c3oc4ncccc4c3n2)c1 [PI-103]
2. Cc1c(P(=S)(c2ccccc2)c2ccccc2)n2ccccc2[n+]1C/C=C/c1ccccc1.[Br-]
3. C[C@@H](Oc1cc(-n2cnc3ccc(CN4CCN(C)CC4)cc32)sc1C(N)=O)c1ccccc1C(F)(F)F [GSK-461364]
4. Cc1c(Nc2ccc(S(=O)(=O)N3CCN(C)CC3)cc2F)nc2ccc(-c3cnn(C4CC4)c3)cn2c1=O
5. CCCc1cc(C)[nH]c(=O)c1CNC(=O)c1cc(-c2ccc(N3CCN(C(C)C)CC3)nc2)cc2c1cnn2C(C)C

[87, 78, 91, 46, 83]

Field: Population Normal (%). Fill in for each record below.
1. Cl.NC[C@@H]1O[C@H](C23CC4CC(CC(C4)C2)C3)Cc2c1ccc(O)c2O
2. CC(Cc1ccc(O)c(O)c1)C(C)Cc1ccc(O)c(O)c1 (configuration not stated) [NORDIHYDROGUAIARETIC ACID]

65
93

----------
For each entry below, report its Population Membrane Permeable-Phenotype (%) value.
Test system: HEK-293T
Assay: Multiplex assay against HEK293T
Format: toxicity, cell-based
Details: human, 24 h, 1 µM, compound concentration 1 uM, replicate 2
One number for each entry, in %.

Previously resolved entries follow.
compound	assay_result
Cc1c(Nc2ccc(S(=O)(=O)N3CCN(C)CC3)cc2F)nc2ccc(-c3cnn(C4CC4)c3)cn2c1=O	7
CCCCCNC(=N)N/N=C/c1c[nH]c2ccc(OC)cc12.O=C(O)/C=C\C(=O)O [TEGASEROD MALEATE]	7
Cl.Cn1c2c(c3ccc(Cl)c(Cl)c31)C(C#N)C1(CCNCC1)NC2=O (stereo unspecified)	7
Cl.NC[C@@H]1O[C@H](C23CC4CC(CC(C4)C2)C3)Cc2c1ccc(O)c2O	11
CC(/C=C1\SC(=S)N(CCCC(=O)Nc2ccc(C(=O)O)c(O)c2)C1=O)=C\c1ccccc1	13

Identify measured Population Membrane Permeable-Phenotype (%) associated with N#CCNC(=O)c1ccc(-c2ccnc(Nc3ccc(N4CCOCC4)cc3)n2)cc1 [MOMELOTINIB] 14

----------
Test system: HEK-293T
Assay: Multiplex assay against HEK293T
Type: toxicity, cell-based
Conditions: human, 12 h, 1 µM, compound concentration 1 uM, replicate 2
observed_property: Population Mitochondria Different-Phenotype (%)
Numbers only, in %.

Example compounds with recorded Population Mitochondria Different-Phenotype (%):
compound	study_system	assay_result
NC(=O)c1ccc2nc(-c3ccc(C4(N)CCC4)cc3)c(-c3ccccc3)n2n1	HEK-293T	17
CCCCCNC(=N)N/N=C/c1c[nH]c2ccc(OC)cc12.O=C(O)/C=C\C(=O)O [TEGASEROD MALEATE]	HEK-293T	50
CN1C(=O)[C@@H](NC(=O)c2cc3ccccc3[nH]2)N=C(c2ccccc2)c2ccccc21 [DEVAZEPIDE]	HEK-293T	34

Below: the item to evaluate.
State its Population Mitochondria Different-Phenotype (%): "CCCCN(CC)c1nc(C)nc2c1c(C)cn2-c1c(C)cc(C)cc1C.Cl" 11

----------
Tested on: U2OS
Assay: Multiplex assay against U2OS
Assay type: toxicity, cell-based
Conditions: human, 48 h, 1 µM, compound concentration 1 uM, replicate 1
Rule for this label: fulfilled means Population Fragmented Nuclei (%) is less than 20%; not fulfilled means Population Fragmented Nuclei (%) is at least 20%.

compound	class_label
CC(C)c1cc(Nc2nc(N3CCC[C@H](N)C3)ncc2C(N)=O)cc(C(C)C)n1	fulfilled
CCCc1cc(C)[nH]c(=O)c1CNC(=O)c1cc(-c2ccc(N3CCN(C(C)C)CC3)nc2)cc2c1cnn2C(C)C	not fulfilled
Cc1ccc(S(=O)(=O)NC2c3ccccc3Oc3ccccc32)cc1	fulfilled
CCCCN(CC)c1nc(C)nc2c1c(C)cn2-c1c(C)cc(C)cc1C.Cl	fulfilled
Oc1cccc(-c2nc(N3CCOCC3)c3oc4ncccc4c3n2)c1	fulfilled

Query compound follows.
Threshold test, Population Fragmented Nuclei (%) < 20%: CCCCCNC(=N)N/N=C/c1c[nH]c2ccc(OC)cc12.O=C(O)/C=C\C(=O)O [TEGASEROD MALEATE] fulfilled

----------
Test system: U2OS
Test: Multiplex assay against U2OS
Type: toxicity, cell-based
Conditions: human, 48 h, 10 µM, compound concentration 10 uM, replicate 1
observed_property: Population Normal (%)
Answers are plain numbers, in %.

molecule	unit_tag	Population Normal (%)
N#CCNC(=O)c1ccc(-c2ccnc(Nc3ccc(N4CCOCC4)cc3)n2)cc1	%	95
c1ccc(-c2oc3ncnc(NC[C@@H]4CCCO4)c3c2-c2ccccc2)cc1	%	94
CS(=O)(=O)N1CCCC(NC(=O)[C@H](CCC2CCCCC2)NC(=O)c2ccc(CNC(=O)c3cnc4ccccn34)cc2)C1 (stereo not given in full)	%	91
Cc1c(Nc2ccc(S(=O)(=O)N3CCN(C)CC3)cc2F)nc2ccc(-c3cnn(C4CC4)c3)cn2c1=O	%	60

Attention now shifts to the item below.
Let me know recorded Population Normal (%) for "CCCc1cc(C)[nH]c(=O)c1CNC(=O)c1cc(-c2ccc(N3CCN(C(C)C)CC3)nc2)cc2c1cnn2C(C)C" , thanks. 85

----------
Tested on: Fibroblast
Experiment: Multiplex assay against human fibroblast
Type: toxicity, cell-based
Conditions: 48 h, 1 µM, compound concentration 1 uM, replicate 1
observed_property: Population Apoptotic (%)
Give bare numbers, in %.

Answered examples (2):
Oc1cccc(-c2nc(N3CCOCC3)c3oc4ncccc4c3n2)c1 33
Cc1ccc(S(=O)(=O)NC2c3ccccc3Oc3ccccc32)cc1 42

Switching to the query record.
Output Population Apoptotic (%) of "N#CCNC(=O)c1ccc(-c2ccnc(Nc3ccc(N4CCOCC4)cc3)n2)cc1" 44

----------
Test system: HEK-293T
Assay: Multiplex assay against HEK293T
Type: toxicity, cell-based
Conditions: human, 12 h, 1 µM, compound concentration 1 uM, replicate 2
Our labelling divides records by Total Cell Count into ranges: A: < 200; B: ≥ 200 and < 1000; C: ≥ 1000

Please review the entries below; each comes with its answer.
compound	class_label
CC[C@H](Nc1ncnc2[nH]cnc12)c1nc2cccc(F)c2c(=O)n1-c1ccccc1 [IDELALISIB]	C
CCOc1ccn(-c2ccc(F)cc2)c(=O)c1C(=O)Nc1ccc(Oc2ccnc(N)c2Cl)c(F)c1 [BMS-777607]	C

Input "Cl.NC[C@@H]1O[C@H](C23CC4CC(CC(C4)C2)C3)Cc2c1ccc(O)c2O" ; output its category B

Band for the recorded Total Cell Count of Oc1cccc(-c2nc(N3CCOCC3)c3oc4ncccc4c3n2)c1 [PI-103] ? A

Where would CC[C@@H]1C(=O)N(C)c2cnc(Nc3ccc(C(=O)NC4CCN(C)CC4)cc3OC)nc2N1C1CCCC1 [BI-2536] land among the classes by reported Total Cell Count? C
